Tested on: SN12C
Assay: NCI tumour cell line growth inhibition, 48 h
Active and inactive are the calls of the source. Cut-off read from the data, not from the text of the source: active = GI50 up to about 1.1 µM and inactive = higher.
Valid outcomes are listed here; reply with one: active, inactive

Called result for Cn1c(=O)c(C2c3ccccc3Oc3c2c(=O)n(C)c2ccccc32)c(O)c2ccccc21 (stereo unspecified) inactive

// repeat for FC(F)(F)c1cccnc1Sc1nc2ccccc2s1 and report inactive

Moving on to N#Cc1[nH]c(=O)n(-c2ccc([N+](=O)[O-])cc2)c1N inactive

Similarly, COc1ccc(-c2nc(-c3cnccn3)n(C/C=C/c3ccccc3)n2)cc1 ? inactive

Also, O=C(/C=C/c1ccccc1F)c1ccc(Cl)c(Cl)c1 please. inactive

And then COC(=O)n1c(C)c(C=O)c2ccc(OC)cc21 , what is it? inactive

And for COc1cccc2c1C(=O)c1c(O)c3c(c(O)c1C2=O)C[C@@](O)(C(C)=O)C[C@@H]3OC1CC(O)C(O)C(C)O1 (stereo partly specified) ? active

Then this compound: CCN(CC)CCn1c2cc3c(cc2c(=O)c2cccnc21)OCCO3 inactive

Next record, please: O=C(N/N=C\c1ccc([N+](=O)[O-])cc1)c1ccccc1Nc1ccccc1C(=O)N/N=C/c1ccc([N+](=O)[O-])cc1 inactive

Also need Cc1ccc(/C=N/Nc2cc(C)c3ccccc3n2)s1 , thanks. inactive

And for N#Cc1nc(/C=C/c2nc(C#N)c(N)o2)oc1N ? inactive
